FYI, the data here is from ChEMBL document CHEMBL3593206.

- system under test: Disintegrin and metalloproteinase domain-containing protein 17 (Homo sapiens, UniProt P78536)
- Sequence (P78536 whole entry, the tested form may be a part): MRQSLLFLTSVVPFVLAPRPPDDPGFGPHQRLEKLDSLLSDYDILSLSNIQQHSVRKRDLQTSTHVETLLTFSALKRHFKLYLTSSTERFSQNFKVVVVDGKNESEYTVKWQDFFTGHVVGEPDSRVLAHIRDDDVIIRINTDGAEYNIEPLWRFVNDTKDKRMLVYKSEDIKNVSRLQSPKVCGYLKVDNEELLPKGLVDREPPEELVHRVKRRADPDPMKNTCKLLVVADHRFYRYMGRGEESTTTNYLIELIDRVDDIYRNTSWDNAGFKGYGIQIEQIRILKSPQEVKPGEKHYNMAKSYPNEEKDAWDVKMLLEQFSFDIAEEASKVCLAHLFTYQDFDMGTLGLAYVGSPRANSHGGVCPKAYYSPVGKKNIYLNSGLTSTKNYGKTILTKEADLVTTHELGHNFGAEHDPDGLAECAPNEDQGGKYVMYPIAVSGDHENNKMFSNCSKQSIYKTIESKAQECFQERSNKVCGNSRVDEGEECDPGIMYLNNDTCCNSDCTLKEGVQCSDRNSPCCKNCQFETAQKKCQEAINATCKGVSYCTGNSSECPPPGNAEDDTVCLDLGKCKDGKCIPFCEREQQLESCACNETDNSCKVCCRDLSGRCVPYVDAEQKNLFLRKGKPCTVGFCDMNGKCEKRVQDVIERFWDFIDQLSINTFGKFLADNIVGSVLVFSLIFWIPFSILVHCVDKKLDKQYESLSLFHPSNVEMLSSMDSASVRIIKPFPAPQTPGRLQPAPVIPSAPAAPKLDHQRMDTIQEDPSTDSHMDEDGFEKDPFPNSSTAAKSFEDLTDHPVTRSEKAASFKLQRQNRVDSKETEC
- test details: Inhibition of ADAM17 (unknown origin) preincubated for 30 mins followed by substrate addition measured every 30 mins for 2 hrs by fluorescence assay
Provide the reported IC50 of each item.
Write the number in µM without appending the unit.

Noted for `CCC[C@H]1CNC(=O)C(=O)N1C[C@@H]1CCCN1C[C@H](Cc1ccc(O)cc1)N1C[C@@H](Cc2ccc(O)cc2)N(CCC23CC4CC(CC(C4)C2)C3)C(=O)C1=O` : its IC50 reads 5.4

// CCC[C@H]1CNC(=O)C(=O)N1C[C@@H]1CCCN1C[C@H](Cc1ccc(O)cc1)N1C[C@H](Cc2ccc(O)cc2)N(CC2CCC(C(C)(C)C)CC2)C(=O)C1=O (stereo partly drawn) : IC50 value = 10

Record `CCC[C@H]1CNC(=O)C(=O)N1C[C@@H]1CCCN1C[C@H](Cc1ccc(O)cc1)N1C[C@H](Cc2ccc(O)cc2)N(CC2CCCCC2)C(=O)C1=O` . Reported IC50: 29
